Experiment: in vivo
Settings: mouse, ip
Readout Label: LD50
Write the figure, then the unit, nothing else.

Hi there! I need LD50 for each item below, if you can.
1. CC(O)c1cccc2nc3c(C(=O)O)cccc3nc12 (stereo not shown) [DC-86-Y, metal not drawn]
2. CC(OC(=O)CO)c1cccc2nc3c(C(=O)O)cccc3nc12 (stereo not shown)
3. CC(OC(=O)COC(C)(C)C)c1cccc2nc3c(C(=O)O)cccc3nc12 (stereo not shown)
4. CC(OC(=O)CCl)c1cccc2nc3c(C(=O)O)cccc3nc12 (stereo not shown)

Result:
1: 300 mg/kg; 2: 20 mg/kg; 3: 250 mg/kg; 4: 40 mg/kg
